molecular target: IKKα (Homo sapiens, UniProt O15111); experiment: DELFIA kinase assay, IKKα; assay type: biochemical; settings: DELFIA kinase assay
Please note: Ki exactly at 8 nM is not fulfilled. Only values below 8 nM get fulfilled.

Known results for compounds:
> print(dat)
                                   compound  qualitative.label
1  Nc1n[nH]c2ccc(-c3ccnc4[nH]c(-c5ccnc(SCc6ccccc6)c5)cc34)cc12 [Compound 6h]          fulfilled
2  Nc1n[nH]c2ccc(-c3ccnc4[nH]c(-c5cc(F)cc(OCc6ccccc6)c5)cc34)cc12 [Compound 6a]      not fulfilled
3  Nc1n[nH]c2ccc(-c3ccnc4[nH]c(-c5cccc(O)c5)cc34)cc12 [Compound 5d]          fulfilled
4  Nc1n[nH]c2ccc(-c3ccnc4[nH]c(-c5cccc(CNc6ccccc6)c5)cc34)cc12 [Compound 5p]      not fulfilled
5  Nc1n[nH]c2ccc(-c3ccnc4[nH]c(-c5cncc(OCc6ccccc6)c5)cc34)cc12 [Compound 6e]      not fulfilled
6  Nc1n[nH]c2ccc(-c3ccnc4[nH]c(-c5cccc(S(=O)(=O)N6CCOCC6)c5)cc34)cc12 [Compound 5aa]      not fulfilled

[in] Is Ki of Nc1n[nH]c2ccc(-c3ccnc4[nH]c5c(c34)CCCC5)cc12 [Compound 2] strictly below 8 nM?
[out] fulfilled

[in] Is Ki of COCCNc1cc(OCc2ccccc2)cc(-c2cc3c(-c4ccc5[nH]nc(N)c5c4)ccnc3[nH]2)c1 [Compound 6c] strictly below 8 nM?
[out] not fulfilled

[in] Is Ki of Nc1n[nH]c2ccc(-c3ccnc4[nH]c(-c5cccc(OCc6ccccc6)c5)cc34)cc12 [Compound 5r [SU1261]] strictly below 8 nM?
[out] not fulfilled

[in] Is Ki of Nc1n[nH]c2ccc(-c3ccnc4[nH]c(-c5cc(O)cc(F)c5)cc34)cc12 [Compound 5f] strictly below 8 nM?
[out] fulfilled

====

test: Mouse hepatocyte intrinsic clearance and half-life; type: in vitro ADME; conditions: cryopreserved pooled hepatocytes, mouse CD1 hepatocytes
ASSAY_READOUT: half-life at 1 µM (min)
The response must be a number in min with no trailing unit.

See these solved cases before continuing.
> print(dat)
                                   compound  experimental.value
1  Nc1n[nH]c2ccc(-c3ccnc4[nH]c(-c5ccnc(OCc6ccccc6)c5)cc34)cc12 [Compound 6g [SU1349]]                  51
2  Nc1n[nH]c2ccc(-c3ccnc4[nH]c(-c5cccc(OCc6ccccc6)c5)cc34)cc12 [Compound 5r [SU1261]]                  36

[in] Tell me the measured half-life at 1 µM of Nc1n[nH]c2ccc(-c3ccnc4[nH]c(-c5ccnc(OCc6ccncc6)c5)cc34)cc12 [Compound 6k] , please.
[out] 121

====

Target: IKKα (Homo sapiens, UniProt O15111)
Sequence (O15111 1-745): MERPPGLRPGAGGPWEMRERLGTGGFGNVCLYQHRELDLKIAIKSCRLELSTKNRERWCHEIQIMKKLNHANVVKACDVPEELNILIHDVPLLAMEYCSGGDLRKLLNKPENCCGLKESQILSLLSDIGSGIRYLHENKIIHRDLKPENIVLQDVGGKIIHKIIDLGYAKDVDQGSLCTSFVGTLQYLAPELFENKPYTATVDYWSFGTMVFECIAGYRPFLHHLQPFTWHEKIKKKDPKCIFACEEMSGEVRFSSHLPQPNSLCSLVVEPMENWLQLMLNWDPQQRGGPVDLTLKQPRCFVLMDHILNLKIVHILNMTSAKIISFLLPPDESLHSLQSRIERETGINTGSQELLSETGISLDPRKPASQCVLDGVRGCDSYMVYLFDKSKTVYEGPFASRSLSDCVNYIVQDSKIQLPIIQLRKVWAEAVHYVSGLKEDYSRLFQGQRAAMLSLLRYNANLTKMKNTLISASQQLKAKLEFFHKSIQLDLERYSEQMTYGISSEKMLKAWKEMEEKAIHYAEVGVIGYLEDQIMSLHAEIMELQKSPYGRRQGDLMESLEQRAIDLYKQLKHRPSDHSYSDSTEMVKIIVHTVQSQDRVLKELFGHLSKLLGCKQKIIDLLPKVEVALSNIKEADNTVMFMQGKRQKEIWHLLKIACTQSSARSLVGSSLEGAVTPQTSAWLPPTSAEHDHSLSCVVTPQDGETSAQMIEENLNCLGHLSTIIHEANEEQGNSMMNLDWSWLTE
Assay: DELFIA kinase assay, IKKα
Settings: DELFIA kinase assay
ASSAY_READOUT: log10 of Ki (log10 of the value in nM)
Hi team, quick reminder: these entries are log10 of Ki (nM).

See these solved cases before continuing.
> print(dat)
                                 smiles.str                          test.target  experimental.value
1  Nc1n[nH]c2ccc(-c3ccnc4[nH]c(-c5ccc(OCc6ccccc6)nc5)cc34)cc12  IKKα (Homo sapiens, UniProt O15111)                1.08
2  CS(=O)(=O)Nc1cccc(-c2cc3c(-c4ccc5[nH]nc(N)c5c4)ccnc3[nH]2)c1  IKKα (Homo sapiens, UniProt O15111)                0.48
3  Nc1cccc(-c2cc3c(-c4ccc5[nH]nc(N)c5c4)ccnc3[nH]2)c1  IKKα (Homo sapiens, UniProt O15111)                0.70

[in] Tell me the measured log10 of Ki of Nc1n[nH]c2ccc(-c3ccnc4[nH]c(-c5ccnc(OCc6ccncc6)c5)cc34)cc12 , please.
[out] 0.78

[in] Tell me the measured log10 of Ki of COc1ccc(COc2cccc(-c3cc4c(-c5ccc6[nH]nc(N)c6c5)ccnc4[nH]3)c2)cc1 , please.
[out] 1.63

[in] Tell me the measured log10 of Ki of CS(=O)(=O)c1cccc(-c2cc3c(-c4ccc5[nH]nc(N)c5c4)ccnc3[nH]2)c1 , please.
[out] 0.48

====

tested on: IKKβ-mediated IκBα degradation in U2OS cells; assay: TNFα-stimulated IκBα degradation, Western blotting; assay type: cell-based; settings: Homo sapiens, 1 h pre-treatment, TNFα 30 min
ASSAY_READOUT: IC50 (nM)
The response must be a number in nM with no trailing unit.

[in] Tell me the measured IC50 of Nc1n[nH]c2ccc(-c3ccnc4[nH]c(-c5ccccc5)cc34)cc12 , please.
[out] 620

====

target: IKKβ (Homo sapiens); assay: DELFIA kinase assay, IKKβ; type: biochemical; settings: Ki Values IKKβ
ASSAY_READOUT: pKi
Scale: negative log10 of molar concentration, which is what pKi denotes.

[in] Tell me the measured pKi of COCCNc1cc(OCc2ccccc2)cc(-c2cc3c(-c4ccc5[nH]nc(N)c5c4)ccnc3[nH]2)c1 [Compound 6c] , please.
[out] 5.81

====

test: In vivo murine PK; conditions: mouse, plasma, ip; CD1 mice, I.P., 10 mg/kg, mean
ASSAY_READOUT: Cmax
I'd appreciate it if you included the unit after the number.

[in] Tell me the measured Cmax of Nc1n[nH]c2ccc(-c3ccnc4[nH]c(-c5ccnc(OCc6ccccc6)c5)cc34)cc12 [Compound 6g [SU1349]] , please.
[out] 199 ng/mL

====

test: In vivo murine PK; conditions: mouse, plasma, ip; CD1 mice, I.P., 10 mg/kg, mean
ASSAY_READOUT: Tmax
I'd appreciate it if you included the unit after the number.

[in] Tell me the measured Tmax of Nc1n[nH]c2ccc(-c3ccnc4[nH]c(-c5ccnc(OCc6ccccc6)c5)cc34)cc12 [Compound 6g [SU1349]] , please.
[out] 26.4 min

====

List of Ki values.
Target: IKKβ (Homo sapiens, UniProt O14920)
Sequence (O14920 1-756): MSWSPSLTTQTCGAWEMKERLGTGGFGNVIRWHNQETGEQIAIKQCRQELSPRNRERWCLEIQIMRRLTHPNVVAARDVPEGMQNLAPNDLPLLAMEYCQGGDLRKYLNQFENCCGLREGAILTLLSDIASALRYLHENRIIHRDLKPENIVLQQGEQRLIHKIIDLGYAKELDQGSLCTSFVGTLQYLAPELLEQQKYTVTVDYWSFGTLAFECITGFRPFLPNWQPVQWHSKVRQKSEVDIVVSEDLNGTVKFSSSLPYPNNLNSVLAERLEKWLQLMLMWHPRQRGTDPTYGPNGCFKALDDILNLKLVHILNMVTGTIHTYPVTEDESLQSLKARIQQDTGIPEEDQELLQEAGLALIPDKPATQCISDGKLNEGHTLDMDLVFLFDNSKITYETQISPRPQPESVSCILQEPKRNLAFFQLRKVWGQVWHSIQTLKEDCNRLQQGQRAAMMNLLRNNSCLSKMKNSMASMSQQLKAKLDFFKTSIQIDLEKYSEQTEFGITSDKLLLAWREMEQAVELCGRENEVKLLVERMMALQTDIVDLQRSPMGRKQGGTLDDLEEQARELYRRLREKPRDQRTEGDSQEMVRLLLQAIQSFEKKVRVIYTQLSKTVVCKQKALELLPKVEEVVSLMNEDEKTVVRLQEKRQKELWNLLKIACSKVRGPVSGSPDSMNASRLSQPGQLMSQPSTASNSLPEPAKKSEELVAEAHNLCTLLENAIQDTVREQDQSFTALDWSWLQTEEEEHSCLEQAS
Assay: DELFIA kinase assay, IKKβ
Format: biochemical
Settings: read-out: Ki Values IKKβ

> print(dat)
                                 smiles.str                          test.target  experimental.value
1  Nc1n[nH]c2ccc(-c3ccnc4[nH]c(-c5ccc(OCc6ccccc6)nc5)cc34)cc12  IKKβ (Homo sapiens, UniProt O14920)               22 nM

[in] Tell me the measured Ki of COCCC(=O)Nc1cccc(-c2cc3c(-c4ccc5[nH]nc(N)c5c4)ccnc3[nH]2)c1 , please.
[out] 25 nM

[in] Tell me the measured Ki of Nc1n[nH]c2ccc(-c3ccnc4[nH]c(-c5cc(OCc6ccccc6)ccn5)cc34)cc12 , please.
[out] 2300 nM

[in] Tell me the measured Ki of Nc1n[nH]c2ccc(-c3ccnc4[nH]c(-c5ccccc5)cc34)cc12 , please.
[out] 15 nM

[in] Tell me the measured Ki of Nc1n[nH]c2ccc(-c3ccnc4[nH]c(-c5cncc(OCc6ccccc6)c5)cc34)cc12 , please.
[out] 1550 nM

[in] Tell me the measured Ki of COc1cccc(-c2cc3c(-c4ccc5[nH]nc(N)c5c4)ccnc3[nH]2)c1 , please.
[out] 40 nM

[in] Tell me the measured Ki of Nc1n[nH]c2ccc(-c3ccnc4[nH]c(-c5cccc(O)c5)cc34)cc12 , please.
[out] 26 nM

[in] Tell me the measured Ki of Cc1ccc(S(=O)(=O)Nc2cccc(-c3cc4c(-c5ccc6[nH]nc(N)c6c5)ccnc4[nH]3)c2)cc1 , please.
[out] 1050 nM

[in] Tell me the measured Ki of Nc1n[nH]c2ccc(-c3ccnc4[nH]c(-c5ccccc5OCc5ccccc5)cc34)cc12 , please.
[out] 1060 nM
